Please respond with reported pEC50 for every item in the list.
# target_entity: hAT1R (Homo sapiens, UniProt P30556)
# Sequence (P30556 whole entry): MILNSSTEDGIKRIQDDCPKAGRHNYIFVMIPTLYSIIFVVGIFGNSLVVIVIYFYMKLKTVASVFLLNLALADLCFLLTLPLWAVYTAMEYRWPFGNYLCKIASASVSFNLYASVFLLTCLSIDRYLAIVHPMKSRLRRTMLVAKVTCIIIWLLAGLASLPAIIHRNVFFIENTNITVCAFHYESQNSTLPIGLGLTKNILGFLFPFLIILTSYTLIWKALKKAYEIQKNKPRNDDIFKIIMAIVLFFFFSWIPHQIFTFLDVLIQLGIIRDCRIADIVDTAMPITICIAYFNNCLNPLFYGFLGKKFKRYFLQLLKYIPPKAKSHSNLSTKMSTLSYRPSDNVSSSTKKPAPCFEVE
# procedure_details: BRET Gq biosensor assay, agonist response, HEK293 cells
# Type: cell-based
# condition_parameters: section of the 42nd table directly before the BRET P63 section
Give bare numbers, as −log10 of the molar value.

For each of the items listed, what is its pEC50?
1. CCCCC(=O)N(Cc1ccc(-c2cc(-c3cc(C)ccn3)ccc2-c2nn[nH]n2)cc1)[C@H](C(=O)O)C(C)C [Example 445]
2. CCOc1nc2cccc(C(=O)O)c2n1Cc1ccc(-c2cc(-n3cnc4ccccc43)ccc2-c2nn[nH]n2)cc1 [Example 339]
3. CCCCC1=NC2(CCCC2)C(=O)N1Cc1ccc(-c2cc(-c3ccccc3)ccc2-c2nn[nH]n2)nc1 [Example 451]
4. CCCCc1ncc(C(=O)Nc2ccncc2)n1Cc1ccc(-c2cc(-c3ccccc3)ccc2-c2nn[nH]n2)cc1 [Example 353]
5. CCCCc1nc(Cl)c(C(=O)O)n1Cc1ccc(-c2cc(Oc3ccccn3)ccc2-c2nn[nH]n2)cc1 [Example 427]
6. CCCCc1nc(Cl)c(C(N)=O)n1Cc1ccc(-c2cc(-c3ccccc3)ccc2-c2noc(=O)[nH]2)cc1 [Example 394]

Reply:
1: 6.85; 2: 7.28; 3: 5.39; 4: 6.25; 5: 6.24; 6: 7.12

###

# target_entity: AGTR1 (Homo sapiens)
# Construct: host or cells: Pathunter CHO-K1 AGTR1 β-arrestin cell line (CHO-K1)
# procedure_details: DiscoveRx β-arrestin2 recruitment assay (enzyme complementation, Pathunter CHO-K1 AGTR1 β-arrestin cell line)
# Type: cell-based
# condition_parameters: DiscoveRx β-arrestin2 recruitment
readout_name: log10 EC50 (log10 of the value in µM)
Would you kindly interpret these values as log10 of EC50 expressed in µM?

Example entries begin here.
> print(dat)
                               smiles.input         target.entity  numeric.readout
1  CCc1nc2c(C)cc(C)nc2n1Cc1ccc(-c2cc(Oc3cncc(OC)c3)ccc2-c2nn[nH]n2)cc1  AGTR1 (Homo sapiens)            -0.86
2  CCCCOC(=O)NS(=O)(=O)c1sc(-c2ccccc2C)cc1-c1ccc(Cn2c(CC)nc3c(C)cc(C)nc32)cn1  AGTR1 (Homo sapiens)            -1.48
3  CCCCc1nc(Cl)c(C(=O)O)n1Cc1ccc(-c2cc(-c3cc(N(C)C)ccn3)ccc2-c2nn[nH]n2)cc1  AGTR1 (Homo sapiens)            -1.16
4  CCCCc1ncc(C(=O)NC2COC2)n1Cc1ccc(-c2cc(-c3ccccc3)ccc2-c2nn[nH]n2)cc1  AGTR1 (Homo sapiens)            -2.00

Give me log10 EC50 for each of these compounds, listed below.
1. CCCCC(=O)N(Cc1ccc(-c2cc(Oc3cccc(OC(F)(F)F)c3)ccc2-c2nn[nH]n2)cc1)[C@H](C(=O)O)C(C)C
2. CCc1nc2c(C)cc(C)nc2n1Cc1ccc(-c2cc(C3=CCCCC3)ccc2-c2nn[nH]n2)cc1
3. CCCCc1nc(Cl)c(C(=O)O)n1Cc1ccc(-c2cc(-c3cnn(C(F)F)c3)ccc2-c2nn[nH]n2)cc1

Reply:
0.59
-1.88
-1.78

###

So I've got a bunch of compounds here, and I need their BRET β-Arrestin2 High AT1R Expression Ymax (%) values.
# target_entity: hAT1R (Homo sapiens, UniProt P30556)
# procedure_details: BRET β-arrestin2 biosensor assay, higher receptor expression (hAT1R 5 ng/well), HEK293 cells
# Assay type: cell-based
Numbers only, in %.

> print(dat)
                                   compound                         target.entity  numeric.readout
1  CCc1nc2c(C)cc(C)nc2n1Cc1ccc(-c2cc(-n3cc(C4CC4)nn3)ccc2-c2nnn[nH]2)cc1 [Example 225]  hAT1R (Homo sapiens, UniProt P30556)             82.1
2  CCCCc1nc(Cl)c(C(=O)O)n1Cc1ccc(-c2cc(-c3cnn(C4CC4)c3)ccc2-c2nn[nH]n2)cc1 [Example 386]  hAT1R (Homo sapiens, UniProt P30556)             66.7
3  CCc1nc2c(C)cc(C)nc2n1Cc1ccc(-c2cc(N3CCC(F)(F)C3)ccc2-c2nn[nH]n2)cc1 [Example 51]  hAT1R (Homo sapiens, UniProt P30556)             43.8
4  CCCCC(=O)N(Cc1ccc(-c2cc(-c3ccccc3)ccc2-c2nn[nH]n2)cc1)C1(C(=O)O)CCCCCC1 [Example 277]  hAT1R (Homo sapiens, UniProt P30556)             79.4

Read the next record carefully.
Task item: What reported BRET β-Arrestin2 High AT1R Expression Ymax (%) corresponds to CCCCC1=NC2(CCCC2)C(=O)N1Cc1ccc(-c2cc(-c3cscn3)ccc2-c2nn[nH]n2)cc1 [Example 137] on hAT1R (Homo sapiens, UniProt P30556)?
Reply: 12.2

###

Can you tell me BRET β-Arrestin2 High AT1R Expression Ymax (%) for the items I'm about to list?
# target_entity: hAT1R (Homo sapiens, UniProt P30556)
# procedure_details: BRET β-arrestin2 biosensor assay, higher receptor expression (hAT1R 5 ng/well), HEK293 cells
# Format: cell-based
Give bare numbers, in %.

# count of solved cases: 3
> print(dat)
                               smiles.input  numeric.readout
1  CCCCC1=NC2(CCCC2)C(=O)N1Cc1ccc(-c2cc(-c3ccccc3)ccc2-c2nn[nH]n2)cn1             84.6
2  CCc1nc2c(C)cc(C)nc2n1Cc1ccc(-c2cc(-n3cc(C(C)C)nn3)ccc2-c2nnn[nH]2)cc1             87.8
3  CCOc1nc2cccc(C(=O)OC)c2n1Cc1ccc(-c2cc(-c3ccccc3)ccc2-c2noc(=O)[nH]2)cc1             97.5

Hi! Can you tell me BRET β-Arrestin2 High AT1R Expression Ymax (%) for each of these compounds?
1. CCCCC1=NC2(CCCC2)C(=O)N1Cc1ccc(-c2cc(-c3ccc(C(=O)NC)cc3)ccc2-c2nn[nH]n2)cc1
2. CCCCC(=O)N(Cc1ccc(-c2cc(-c3ccccc3)ccc2-c2nn[nH]n2)cc1)[C@H](C(=O)O)C(C)C
3. CCCc1nc(CC)c(C(=O)NCC(F)(F)F)n1Cc1ccc(-c2cc(-c3ccccc3)ccc2-c2nn[nH]n2)cc1
4. CCCCC(=O)N(Cc1ccc(-c2cc(N3CC(C)(C)c4ccccc43)ccc2-c2nn[nH]n2)cc1)[C@H](C(=O)O)C(C)C

Reply:
32.6
68.4
87.9
77.6

###

# target_entity: AGTR1 (Homo sapiens, UniProt P30556)
# Construct: host or cells: Pathunter CHO-K1 AGTR1 β-arrestin cell line (CHO-K1)
# procedure_details: DiscoveRx IP1 accumulation assay (HTRF), agonist mode, Pathunter CHO-K1 AGTR1 β-arrestin cell line
# Type: cell-based
# Experimental: In one aspect of the invention, signaling bias of compounds was assessed by comparing the relative activity of compounds to activate both the β-arrestin and Gq signaling pathways. […] Gq activation can be assessed by measuring the accumulation of inositol phosphates (e.g. IP3, IP1) that are liberated following activation of phospholipase C by Gq (Thomsen, Frazer et al. 2005). […] IP1 accumulation was measured in both agonist and antagonist modes. […]
readout_name: IP-1 Ymax (%)

> print(dat)
                                   compound                         target.entity   readout.name  result
1  CCc1nc2c(C)cc(C)nc2n1Cc1ccc(-c2cc(-c3cccc(C)c3)ccc2C(=O)O)cc1  AGTR1 (Homo sapiens, UniProt P30556)  IP-1 Ymax (%)    6.6%
2  CCc1nc2c(C)cc(C)nc2n1Cc1ccc(-c2cc(-c3ccc(C(=O)N(C)C)cc3)ccc2-c2nn[nH]n2)cc1  AGTR1 (Homo sapiens, UniProt P30556)  IP-1 Ymax (%)    3.8%
3  CCc1cn(-c2ccc(-c3nnn[nH]3)c(-c3ccc(Cn4c(CC)nc5c(C)cc(C)nc54)cc3)c2)nn1  AGTR1 (Homo sapiens, UniProt P30556)  IP-1 Ymax (%)    8.4%

I would be grateful if you could provide IP-1 Ymax (%) for each of the following entries.
1. CCC1=NC2(CCOC2)C(=O)N1Cc1ccc(-c2cc(-c3ccccc3O)ccc2-c2nnn[nH]2)cc1 (single isomer, unassigned) [Example 167]
2. CCCCOC(=O)NS(=O)(=O)c1sc(-c2ccccc2)cc1-c1ccc(Cn2c(CC)nc3c(C)cc(C)nc32)cn1
3. CCCCC1=NC2(CCCC2)C(=O)N1Cc1ccc(-c2cc(-c3ccc(OC(F)(F)F)cc3)ccc2-c2nn[nH]n2)cc1
4. CCc1nc2c(C)cc(C)nc2n1Cc1ccc(-c2cc(-c3cn(Cc4ccccc4)nn3)ccc2-c2nnn[nH]2)cc1

Reply:
1. 32.4%
2. 6.7%
3. 4.0%
4. 9.6%
